# IC50 annotations
Target: active p38 alpha enzyme (Upstate Biotechnology) (Homo sapiens, UniProt Q16539)
Construct: purchased Upstate Biotechnology
Sequence (Q16539 whole entry): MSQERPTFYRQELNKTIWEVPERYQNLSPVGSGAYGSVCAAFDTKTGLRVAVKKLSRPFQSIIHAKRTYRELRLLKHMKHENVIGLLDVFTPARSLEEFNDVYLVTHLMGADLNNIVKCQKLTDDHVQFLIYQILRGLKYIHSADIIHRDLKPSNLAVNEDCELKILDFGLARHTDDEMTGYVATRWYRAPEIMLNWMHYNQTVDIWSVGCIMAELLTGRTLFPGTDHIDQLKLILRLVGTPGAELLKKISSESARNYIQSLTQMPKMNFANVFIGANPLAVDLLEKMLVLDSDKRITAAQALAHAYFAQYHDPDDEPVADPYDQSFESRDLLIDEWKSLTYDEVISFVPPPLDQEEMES
Experiment: p38α biochemical assay (ATP turnover, luminescent detection, Cambrex PKlight)
Conditions: p38α biochemical assay, Table 1 Biological Activity

Look over these answered cases.
| CHEM SMILES | VALUE MEASURED |
| --- | --- |
| CC(C)NC(=O)c1csc(-c2oc(CN3CCN(C(=O)c4ccc(C=O)cc4)CC3)nc2-c2ccc(F)cc2)n1 | > 1000 nM |
| CC(C)NC(=O)c1csc(-c2oc(CN3CCN(C(=O)c4ccccc4Oc4ccccc4)CC3)nc2-c2ccc(F)cc2)n1 | > 1000 nM |
| Cc1cccc([N+](=O)[O-])c1C(=O)NCc1nc(-c2ccc(F)cc2)c(-c2nc(C(=O)NC(C)C)cs2)o1 | ≤ 1000 nM |

Below: the item to evaluate.
"CC(C)NC(=O)c1csc(-c2oc(CNC(=O)c3ccccc3-c3ccccc3)nc2-c2ccc(F)cc2)n1" yielded IC50 of > 1000 nM

---

# IC50 annotations
Biological target: active p38 alpha enzyme (Upstate Biotechnology) (Homo sapiens)
Construct: purchased Upstate Biotechnology
Experiment: p38α biochemical assay (ATP turnover, luminescent detection, Cambrex PKlight)
Conditions: p38α biochemical assay, Table 1 Biological Activity

Look over these answered cases.
| MOLECULE | IC50 |
| --- | --- |
| COc1cccc(O)c1C(=O)N1CCN(Cc2nc(-c3ccc(F)cc3)c(-c3nc(C(=O)NC(C)C)cs3)o2)CC1 [Example 423] | ≤ 1000 nM |
| CC(C)NC(=O)c1csc(-c2c(-c3ccc(F)cc3)noc2CNC(=O)c2cc(Cl)ccc2Cl)n1 [Example 728] | > 1000 nM |
| CC(C)NC(=O)c1csc(-c2c(-c3ccc(F)cc3)noc2CNC(=O)c2ccc(Cl)cc2Cl)n1 [Example 727] | > 1000 nM |
| CC(C)NC(=O)c1csc(-c2c(-c3ccc(F)cc3)noc2CNC(=O)C(NC(=O)OC(C)(C)C)C(C)C)n1 (centres unmarked) [Example 774] | > 1000 nM |
| CC(C)NC(=O)c1csc(-c2c(-c3ccc(F)cc3)noc2CNC(=O)CCc2ccccc2Br)n1 [Example 784] | > 1000 nM |

Cc1nc(-c2ccc(F)cc2)c(-c2nc(C(=O)NCc3ccc4c(c3)OCO4)cs2)s1 [Example 59] yielded IC50 of ≤ 1000 nM

CC(C)NC(=O)c1csc(-c2c(-c3ccc(F)cc3)noc2CNC(=O)C=O)n1 [Example 574] yielded IC50 of > 1000 nM

Cc1cc(C)cc(C(=O)NCc2nc(-c3ccc(F)cc3)c(-c3nc(C(=O)NC(C)C)cs3)o2)c1 [Example 138] yielded IC50 of > 1000 nM

CC(C)NC(=O)c1csc(-c2c(-c3ccc(F)cc3)noc2CNC(=O)c2c(F)cccc2Cl)n1 [Example 675] yielded IC50 of > 1000 nM

COc1ccc(Br)c(C(=O)N2CCN(Cc3nc(-c4ccc(F)cc4)c(-c4nc(C(=O)NC(C)C)cs4)o3)CC2)c1 [Example 553] yielded IC50 of > 1000 nM

CC(C)NC(=O)c1csc(-c2oc(CNC(=O)c3ccc(Br)cc3)nc2-c2ccc(F)cc2)n1 [Example 269] yielded IC50 of > 1000 nM

CC(C)NC(=O)c1csc(-c2oc(CN3CCN(C(=O)c4cc(Cl)ccc4[N+](=O)[O-])CC3)nc2-c2ccc(F)cc2)n1 [Example 512] yielded IC50 of > 1000 nM

Cc1onc(-c2ccc(Cl)cc2)c1-c1ccn(C(=O)NC(CO)CO)n1 [Example 14] yielded IC50 of > 1000 nM

---

Molecular target: active p38 alpha enzyme (Upstate Biotechnology) (Homo sapiens, UniProt Q16539)
Construct: purchased Upstate Biotechnology
Test: p38α biochemical assay (ATP turnover, luminescent detection, Cambrex PKlight)
Conditions: p38α kinase; Table 1 Biological Activity
pIC50: −log10 of the molar value.
MEASURED PARAMETER: pIC50

Look over these answered cases.
| COMPOUND | VALUE MEASURED |
| --- | --- |
| CC(C)NC(=O)c1csc(-c2oc(CNN3CCOCC3)nc2-c2ccc(F)cc2)n1 [Example 1082] | < 6.00 |
| Cc1ccc(N2CCN(Cc3onc(-c4ccc(F)cc4)c3-c3nc(C(=O)NC(C)C)cs3)CC2)cc1C [Example 1592] | < 6.00 |
| CC(C)NC(=O)c1csc(-c2c(-c3ccc(F)cc3)noc2CN[C@@H](C)c2ccccc2)n1 [Example 1428] | < 6.00 |

CC(C)NC(=O)c1csc(-c2c(-c3ccc(F)cc3)noc2CNCCCN(C)c2ccccc2)n1 [Example 1487] yielded pIC50 of < 6.00

CC(C)NC(=O)c1csc(-c2c(-c3ccc(F)cc3)n[nH]c2C2CCN(C(=O)c3cc([N+](=O)[O-])ccc3F)CC2)n1 [Example 949] yielded pIC50 of < 6.00

COc1ccc(N2CCN(Cc3onc(-c4ccc(F)cc4)c3-c3nc(C(=O)NC(C)C)cs3)CC2)cc1OC [Example 1628] yielded pIC50 of < 6.00

COCC(C)NCc1onc(-c2ccc(F)cc2)c1-c1nc(C(=O)NC(C)C)cs1 (stereo not drawn) [Example 1403] yielded pIC50 of < 6.00

CC(C)NC(=O)c1csc(-c2c(-c3ccc(F)cc3)n[nH]c2C2CCN(C(=O)Cc3ccc(C(F)(F)F)cc3)CC2)n1 [Example 993] yielded pIC50 of < 6.00

CCN(CC)CCCC(C)NCc1onc(-c2ccc(F)cc2)c1-c1nc(C(=O)NC(C)C)cs1 (stereo not drawn) [Example 1482] yielded pIC50 of < 6.00

COc1ccc(CCNC(=O)c2csc(-c3sc(C)nc3-c3ccc(F)cc3)n2)cc1 [Example 1799] yielded pIC50 of ≥ 6.00

O=C(NCc1ccc(Cl)c(Cl)c1)c1csc(-c2c(-c3ccc(F)cc3)n[nH]c2C2CCNCC2)n1 [Example 2145] yielded pIC50 of < 6.00

CC(=O)Nc1cccc(C(=O)N2CCC(c3[nH]nc(-c4ccc(F)cc4)c3-c3nc(C(=O)NC(C)C)cs3)CC2)c1 [Example 925] yielded pIC50 of ≥ 6.00

CC(C)NC(=O)c1csc(-c2c(-c3ccc(F)cc3)n[nH]c2C2CCN(C(=O)c3ccc(Oc4cccc(O)c4)cc3)CC2)n1 [Example 1026] yielded pIC50 of < 6.00

CC(C)NC(=O)c1csc(-c2oc(CN3CCN(c4cccc(C(F)(F)F)c4)CC3)nc2-c2ccc(F)cc2)n1 [Example 1297] yielded pIC50 of < 6.00

CC(C)NC(=O)c1csc(-c2c(-c3ccc(F)cc3)n[nH]c2C2CCN(C(=O)C(C)(C)C)CC2)n1 [Example 817] yielded pIC50 of ≥ 6.00

---

# IC50 annotations
Target: active p38 alpha enzyme (Upstate Biotechnology) (Homo sapiens, UniProt Q16539)
Construct: purchased Upstate Biotechnology
Assay: p38α biochemical assay (ATP turnover, luminescent detection, Cambrex PKlight)
Conditions: p38α biochemical assay, Table 1 Biological Activity

Look over these answered cases.
| COMPOUND | IC50 |
| --- | --- |
| Cc1ccc(C)c(C(=O)N2CCN(Cc3nc(-c4ccc(F)cc4)c(-c4nc(C(=O)NC(C)C)cs4)o3)CC2)c1 | > 1000 nM |
| CC(C)NC(=O)c1csc(-c2oc(CN3CCN(C(=O)c4cccc(O)c4O)CC3)nc2-c2ccc(F)cc2)n1 | ≤ 1000 nM |
| CC(C)NC(=O)c1csc(-c2oc(CNC(=O)c3cccc(Cl)c3Cl)nc2-c2ccc(F)cc2)n1 | ≤ 1000 nM |
| CC(C)NC(=O)c1csc(-c2c(-c3ccc(F)cc3)noc2CN(C)C)n1 | ≤ 1000 nM |
| CC(C)NC(=O)c1csc(-c2oc(CNC(=O)c3ccc(OC(C)C)cc3)nc2-c2ccc(F)cc2)n1 | > 1000 nM |
| CC(C)NC(=O)c1csc(-c2c(-c3ccc(F)cc3)noc2CNC(=O)c2ccc(OC(C)C)cc2)n1 | > 1000 nM |
| CC(C)NC(=O)c1csc(-c2oc(CNC(=O)C3=CCCC3)nc2-c2ccc(F)cc2)n1 | > 1000 nM |
| CC(C)NC(=O)c1csc(-c2oc(CNC(=O)CCc3cccc(Br)c3)nc2-c2ccc(F)cc2)n1 | > 1000 nM |

"CC(=O)Oc1ccccc1C(=O)NCc1nc(-c2ccc(F)cc2)c(-c2nc(C(=O)NC(C)C)cs2)o1" yielded IC50 of > 1000 nM

"CC(C)NC(=O)c1csc(-c2oc(CNC(=O)CC3Cc4ccccc4C3)nc2-c2ccc(F)cc2)n1" yielded IC50 of > 1000 nM

CC(CC(=O)NCc1onc(-c2ccc(F)cc2)c1-c1nc(C(=O)NC(C)C)cs1)CC(C)(C)C (stereo not drawn) yielded IC50 of > 1000 nM

CC(C)NC(=O)c1csc(-c2oc(CN3CCN(C(=O)C(C)c4ccc(O)cc4)CC3)nc2-c2ccc(F)cc2)n1 (stereo not drawn) yielded IC50 of > 1000 nM

CC(C)NC(=O)c1csc(-c2oc(CN3CCN(C(=O)C4CN(C(=O)OC(C)(C)C)CCN4)CC3)nc2-c2ccc(F)cc2)n1 (stereo not drawn) [Example 551] yielded IC50 of > 1000 nM

"CC(C)NC(=O)c1csc(-c2c(-c3ccc(F)cc3)noc2CNC(=O)c2ccccc2Cc2ccccc2)n1" yielded IC50 of > 1000 nM

"Cc1nc(-c2ccc(F)cc2)c(-c2nc(C(=O)NCC3CC3)cs2)s1" yielded IC50 of ≤ 1000 nM

Source listed as patent US20060252807A1.
